# inhibition values compiled below
ASSAY PROTOCOL: growth inhibition, MDA-MB-436, cell-based, BGB or cisplatin combos, synergistic combos for chromothripsis tumors (AID 1671458);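 also: cells exposed for 96 hours; 0% = vehicle DMSO and 100% = killing by high DMSO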
CONDITION PARAMETERS: MDA-MB-436 breast carcinoma growth inhibition, drug combinations; measured here: BGB combination; at 0.5 µM; stronger effect = higher value
MEASURED METRIC: inhibition (%)

O=C(O)[C@H](Cc1c[nH]c2ccccc12)N1C(=O)c2ccccc2C1=O    -12
CC(=O)Nc1ccc(C(=O)Nc2ccccc2N)cc1    6.02
Nc1ncnc2c1c(-c1cnc3[nH]ccc3c1)nn2C1CCCC1    0.573
COc1cc2ncnc(-n3nc(-c4ccccn4)nc3N)c2cc1OC    -21.1
COc1cc(C=O)c([N+](=O)[O-])cc1OC    -13
O=C(/C=C/c1ccc(CN(CCO)CCc2c[nH]c3ccccc23)cc1)NO    55.8
N=C1CCCN1Cc1[nH]c(=O)[nH]c(=O)c1Cl    3
CN(C)c1ccc(C(=O)NCCCCCCC(=O)NO)cc1    -2.54
CC(=O)[C@]1(N)Cc2c(O)c3c(c(O)c2[C@@H](O[C@H]2C[C@H](O)[C@H](O)CO2)C1)C(=O)c1ccccc1C3=O    -3.77
C=C1[C@H](CO)[C@@H](O)C[C@@H]1n1cnc2c(=O)[nH]c(N)nc21    -0.92
CN(C)Cc1c(C(=O)NCCOc2ccc(C(=O)NO)cc2)oc2ccccc12    36

====

ASSAY PROTOCOL: drug combination growth inhibition, ovarian cancer – cell-based, oncology-focused library, rucaparib conditional, profiling panel (AID 1508598)
CONDITION PARAMETERS: patient-derived ovarian cancer cells, CellTiter-Glo viability, 144 h; at 0.0195 µM; OCI-P5x cells; without rucaparib; stronger effect = lower value
MEASURED METRIC: viability (%)

COc1ccc(-c2ccc3c(N4CCOCC4)nc(N4C[C@@H](C)O[C@@H](C)C4)nc3n2)cc1CO    104
Nc1nc(Nc2ccc(S(N)(=O)=O)cc2)nn1C(=O)c1c(F)cccc1F    94.6
Cc1ccc(C(=O)N(CCCN)[C@@H](c2oc3cc(Cl)ccc3c(=O)c2Cc2ccccc2)C(C)C)cc1    19.7
Cc1cnc(Nc2ccc(OCCN3CCCC3)cc2)nc1Nc1cccc(S(=O)(=O)NC(C)(C)C)c1    112
COc1cc(Nc2ncc3c(n2)-c2ccc(Cl)cc2C(c2c(F)cccc2OC)=NC3)ccc1C(=O)O    99.3
Cc1cccc(Nc2nc(-c3ccncc3)cs2)c1    89.5
Cc1cnc(NC(=O)Nc2cc(Br)c(C)cc2OC[C@@H]2CNCCO2)cn1    104
O=C(Nc1ccc(OC(F)(F)F)cc1)c1sccc1NCc1ccnc2ccccc12    79
O=C(Nc1cn[nH]c1-c1nc2ccc(CN3CCOCC3)cc2[nH]1)NC1CC1    105
Cc1nc(N)sc1-c1ccnc(Nc2ccc(N3CCOCC3)cc2)n1    113

====

ASSAY PROTOCOL: viability loss with induced miR-34 in A549 – imaging, A549 dox-inducible miR-34, nuclei and caspase counts, primary screen (AID 1347080)
CONDITION PARAMETERS: A549 miR-34 inducible, Hoechst nuclei count, 48 h; measured here: total cells with miR-34 induction; stronger effect = lower value
Listed here: items and their measured cell count.
MEASURED METRIC: cell count

CC(C)(C)C(=O)Nc1ccccc1    5080
CCCCCCCCCCCCCCCC(=O)NC[C@@H](C)O    6270
CCCCC/C=C\C/C=C\CCCCCCCC(=O)OCC(COC(=O)CCCCCCCCCCCCCCC)OC(=O)CCCCCCC/C=C\CCCCCCCC (stereo not given)    5950
Nc1nccc(Oc2ccc(NC(=O)c3c[nH]cc(-c4ccc(F)cc4)c3=O)cc2F)c1Cl    7750
CCCCC[C@H](O)/C=C/[C@@H]1c2cc(CCCCC(=O)O)n(-c3ccccc3)c2C[C@H]1O    6340
